Target: T1, human IL-22 receptor (human IL-22Ra and human IL-10Rb) on cells (human, UniProt Q8N6P7 16-574; Q08334 20-325)
T1 sequence (looked up) 1: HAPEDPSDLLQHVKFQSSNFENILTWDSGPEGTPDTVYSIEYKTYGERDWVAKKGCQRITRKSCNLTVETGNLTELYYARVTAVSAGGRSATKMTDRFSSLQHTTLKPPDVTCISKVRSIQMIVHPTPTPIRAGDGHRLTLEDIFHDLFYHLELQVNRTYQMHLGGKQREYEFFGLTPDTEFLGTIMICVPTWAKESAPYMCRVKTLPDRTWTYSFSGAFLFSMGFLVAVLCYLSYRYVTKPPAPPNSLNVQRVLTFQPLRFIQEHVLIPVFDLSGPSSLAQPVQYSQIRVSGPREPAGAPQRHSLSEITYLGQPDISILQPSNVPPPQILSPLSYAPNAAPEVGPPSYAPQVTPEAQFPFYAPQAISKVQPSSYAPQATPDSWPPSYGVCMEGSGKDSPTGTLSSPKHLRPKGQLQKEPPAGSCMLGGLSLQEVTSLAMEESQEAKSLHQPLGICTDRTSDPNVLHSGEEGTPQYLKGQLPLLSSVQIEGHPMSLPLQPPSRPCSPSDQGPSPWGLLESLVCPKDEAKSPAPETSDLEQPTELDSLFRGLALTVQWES
T1 sequence (looked up) 2: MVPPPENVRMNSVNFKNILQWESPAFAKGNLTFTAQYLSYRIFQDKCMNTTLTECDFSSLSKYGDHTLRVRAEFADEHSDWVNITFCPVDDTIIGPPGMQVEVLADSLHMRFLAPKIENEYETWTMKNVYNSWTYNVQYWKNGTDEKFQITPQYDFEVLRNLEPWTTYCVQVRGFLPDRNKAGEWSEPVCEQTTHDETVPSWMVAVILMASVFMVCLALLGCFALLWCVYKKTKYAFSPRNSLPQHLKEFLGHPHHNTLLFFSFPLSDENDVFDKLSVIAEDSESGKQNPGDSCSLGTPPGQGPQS
Experiment: cell-based or functional assay
parameter: EC50, HepG2 cell assay for pSTAT3 (AlphaScreen SureFire STAT3 p-Tyr705) (nM)
// note: answer is a bare numeric in nM

Incoming: Give a short answer stating reported EC50, HepG2 cell assay for pSTAT3 (AlphaScreen SureFire STAT3 p-Tyr705) for Comparator 17 (ligand) GPGCPISSHCRLDKSNFQQPYITNRTFMLAKEASLADNNTDVRLIGEKLFHGVSMSERCYLMKQVLNFTLEEVLFPQSDRFQPYMQEVVPFLARLSNRLSTCHIEGDDLHIQRNVQKLKDTVKKLGESGEIKAIGELDLLFMSLRNACI .
Outgoing: 12.1
